Exercise: state measured polymerase ribozyme fitness (log ratio) for each of the variants provided.
B1: TPR t1 (parent)
chain: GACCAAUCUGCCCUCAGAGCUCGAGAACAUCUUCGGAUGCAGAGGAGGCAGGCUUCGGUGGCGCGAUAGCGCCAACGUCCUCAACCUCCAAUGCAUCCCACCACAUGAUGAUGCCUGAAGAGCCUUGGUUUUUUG

# Variants of: B1
# experiment: polymerase ribozyme fitness, log enrichment relative to wild type (log ratio); higher = more active; in vitro selection for triplet polymerase activity
Number, no unit, nothing else.

State the recorded polymerase ribozyme fitness (log ratio) for this entry: U78C C88A
-0.513

Given U21A G128C , state its recorded polymerase ribozyme fitness (log ratio).
-2.29

Endpoint output: polymerase ribozyme fitness (log ratio) of A74U C104A . Value?
-1.82

What value of polymerase ribozyme fitness (log ratio) has been recorded for this entry: C11G G45U G51C G61A
-3.84

Find the recorded polymerase ribozyme fitness (log ratio) belonging to C102A U112G U132A and report it.
-2.53

What polymerase ribozyme fitness (log ratio) value was documented for this variant, A18G G35A G69A G117A ?
-5.21

Recorded polymerase ribozyme fitness (log ratio) of A18G C64U G69C U78G G113C , please.
-3.05

Given G52U G58C , state its recorded polymerase ribozyme fitness (log ratio).
-0.674

I am curious: what polymerase ribozyme fitness (log ratio) value has been reported for C12U U21G C62G A74C U78A ?
-3.33

Give the measured polymerase ribozyme fitness (log ratio) of G57U C89A .
-1.5

Return reported polymerase ribozyme fitness (log ratio); argument: A41U A46U
-2.26

Give its polymerase ribozyme fitness (log ratio) value. Item: G48C A83C A90C G110A
-3.46

Tell me the measured polymerase ribozyme fitness (log ratio) of C56A C73U C124A , please.
1.29

Fill blank: measured polymerase ribozyme fitness (log ratio) of the variant C4A G61A U78A G128U is ____.
-1.35

Fill in: polymerase ribozyme fitness (log ratio) of A24U U30C G58A G63C A95G G120C is ___
-8.06

polymerase ribozyme fitness (log ratio) lookup needed for A84U C97U , thanks.
-0.894

Sample C11G C12U G113A A118U — what was its polymerase ribozyme fitness (log ratio)?
-3.33

Returns the measured polymerase ribozyme fitness (log ratio) for the input variant. Input: C4G U112A
-0.309

Could you tell me which polymerase ribozyme fitness (log ratio) is on file for G19U A26U C64U U78C C114A ?
-1.82
